Taken from ChEMBL document CHEMBL3124856.

- Assay Notes: Apparent intrinsic clearance in human liver microsomes
- Format: ADME
- Experimental Setup: read-out: CLH(app)
Endpoint Name: CLint scaled (mL/min/kg)

>>> observed("Cc1cn(-c2ccc3n(c2=O)CCN(CCOc2cccc4ccc(F)cc24)C3=O)cn1")
30
>>> observed("Cc1cn(-c2ccc3c(=O)n(Cc4cccc(C(F)(F)F)c4)ccc3c2O)cn1")
12.3
>>> observed("COc1cc(C(=O)NCc2cccc(C(F)(F)F)c2)ccc1-n1cnc(C)c1")
27.8
>>> observed("COc1c(-n2cnc(C)c2)ccc2c(=O)n(CCc3cccc(Cl)c3)ccc12")
36.1

A: COc1cc2c(=O)n(CCc3cccc(Cl)c3)ccc2cc1-n1cnc(C)c1
B: Cc1cn(-c2ccc3n(c2=O)CCN(CCOc2ccccc2C(F)(F)F)C3=O)cn1
C: Cc1cn(-c2ccc3n(c2=O)CCN(CC2(c4ccc(Cl)cc4)CC2)C3=O)cn1
Please produce an ascending ranking of these compounds based on CLint scaled. Output spec: labels arranged per the requested ranking.
C, B, A
